Where do the numbers come from? From ChEMBL document CHEMBL5528031.

The following molecules are listed with their measured IC50 values.
- measurement protocol: Antiproliferative activity against human DND41 cells assessed as inhibition of cell growth incubated for 72 hrs by MTT assay
- Format: functional, cell-based
- measurement conditions: DND41, 72 h
attribute measured: IC50 (nM)

1) O=C1c2ccccc2C(=O)c2c(O)c3c(c(O)c21)CC(C(=O)N1CCNCC1)C3 = 1700
2) NCCNC(=O)C1Cc2c(O)c3c(c(O)c2C1)C(=O)c1ccccc1C3=O = 3100
3) O=C1c2ccccc2C(=O)c2c(O)c3c(c(O)c21)CC(C(=O)NC1CCNCC1)C3 = 2000
4) COc1cccc2c1C(=O)c1c(O)c3c(c(O)c1C2=O)C[C@@](O)(C(=O)CO)C[C@@H]3O[C@H]1C[C@H](N)[C@H](O)[C@H](C)O1 = 760

----------
The following compounds are listed with their measured pIC50 values.
- measurement protocol: Antiproliferative activity against human DND41 cells assessed as inhibition of cell growth incubated for 72 hrs by MTT assay
- Assay type: functional, cell-based
- measurement conditions: DND41, 72 h
pIC50: −log10 of the molar value.
attribute measured: pIC50

1. N[C@@H]1CN(C(=O)C2Cc3c(O)c4c(c(O)c3C2)C(=O)c2ccccc2C4=O)C[C@H]1N = 5.64
2. N[C@H]1CCN(C(=O)C2Cc3c(O)c4c(c(O)c3C2)C(=O)c2ccccc2C4=O)C1 = 5.62
3. O=C1c2ccccc2C(=O)c2c(O)c3c(c(O)c21)CC(C(=O)N[C@@H]1CCNC1)C3 = 5.66
4. N[C@H]1CC[C@H](NC(=O)C2Cc3c(O)c4c(c(O)c3C2)C(=O)c2ccccc2C4=O)CC1 = 5.60
5. O=C1c2ccccc2C(=O)c2c(O)c3c(c(O)c21)CC(C(=O)NC1CCCNC1)C3 (centres undefined) = 5.82
6. NCCN(CCN)C(=O)C1Cc2c(O)c3c(c(O)c2C1)C(=O)c1ccccc1C3=O = 5.62
7. NC1CCCN(C(=O)C2Cc3c(O)c4c(c(O)c3C2)C(=O)c2ccccc2C4=O)C1 (centres undefined) = 5.82
8. O=C1c2ccccc2C(=O)c2c(O)c3c(c(O)c21)CC(C(=O)NC1CN2CCC1CC2)C3 (centres undefined) = 5.66
9. NCCCNC(=O)C1Cc2c(O)c3c(c(O)c2C1)C(=O)c1ccccc1C3=O = 4.37

----------
- measurement protocol: Cytotoxicity against hFB-hTERT6 cells assessed as inhibition of cell growth incubated for 72 hrs by MTT assay
- Type: toxicity, cell-based
- measurement conditions: human
attribute measured: IC50 at 72 h

1) O=C1c2ccccc2C(=O)c2c(O)c3c(c(O)c21)CC(C(=O)N1CCC(N2CCCCC2)CC1)C3 = 4.5 µM
2) NCCN(CCN)C(=O)C1Cc2c(O)c3c(c(O)c2C1)C(=O)c1ccccc1C3=O = 2.3 µM
3) O=C1c2ccccc2C(=O)c2c(O)c3c(c(O)c21)CC(C(=O)N[C@@H]1CCNC1)C3 = 4.2 µM
4) O=C1c2ccccc2C(=O)c2c(O)c3c(c(O)c21)CC(C(=O)N[C@H]1CCNC1)C3 = 4.2 µM
5) NC1CCCN(C(=O)C2Cc3c(O)c4c(c(O)c3C2)C(=O)c2ccccc2C4=O)C1 (centres undefined) = 4 µM
6) N[C@H]1CC[C@H](NC(=O)C2Cc3c(O)c4c(c(O)c3C2)C(=O)c2ccccc2C4=O)CC1 = 4.5 µM
7) O=C1c2ccccc2C(=O)c2c(O)c3c(c(O)c21)CC(C(=O)N1CCNCC1)C3 = 4 µM
8) CN1CCN(C(=O)C2Cc3c(O)c4c(c(O)c3C2)C(=O)c2ccccc2C4=O)CC1 = > 50 µM
9) O=C1c2ccccc2C(=O)c2c(O)c3c(c(O)c21)CC(C(=O)NCCOCCO)C3 = > 50 µM

----------
The following molecules are listed with their measured solubility values.
- measurement protocol: Solubility of compound in deionized water at pH 6
- Assay type: physicochemical
attribute measured: solubility (mg/mL)

1) N[C@H]1CCN(C(=O)C2Cc3c(O)c4c(c(O)c3C2)C(=O)c2ccccc2C4=O)C1 = 55
2) O=C1c2ccccc2C(=O)c2c(O)c3c(c(O)c21)CC(C(=O)N1CCNCC1)C3 = 46
